Taken from patent US20260200947A1.

Recorded pIC50, one value per entry.
tested-on: GppNp-KRAS G12V (Homo sapiens, UniProt P01116, G12V)
Sequence (P01116 1-169 isoform P01116-2 G12V): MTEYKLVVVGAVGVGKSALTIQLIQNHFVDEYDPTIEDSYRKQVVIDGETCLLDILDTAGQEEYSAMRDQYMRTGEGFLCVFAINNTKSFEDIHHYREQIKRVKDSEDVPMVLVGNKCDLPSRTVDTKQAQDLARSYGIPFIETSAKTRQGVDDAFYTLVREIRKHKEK
measurement-protocol: biochemical
Note: pIC50 values are expressed as the negative base-10 logarithm of concentration in M.

C#Cc1c(F)ccc2cc(N)cc(-c3nc4c5c(nc(OC[C@@]67CCCN6C[C@H](F)C7)nc5c3F)N3CCCOCC3N4)c12 (stereo partly drawn)	6.29

// below: pIC50 requested for another compound
Incoming: What value of pIC50 has been recorded for this entry: C#Cc1c(F)ccc2cc(N)cc(-c3nc4c5c(nc(OC[C@@]67CCCN6C[C@H](F)C7)nc5c3F)N3CCC=CC[C@H]3C4=C)c12
Outgoing: 6.95

* * *

tested-on: GppNp-KRAS G12V (Homo sapiens, UniProt P01116, G12V)
measurement-protocol: biochemical
measured-metric: log10(IC50) (log10 of the value in nM)
In plain terms, each number is the log10 of measured IC50 in nM.

Solved entries (count: 4):
C#Cc1c(F)ccc2cc(N)cc(-c3nc4c5c(nc(OC[C@@]67CCCN6C[C@H](F)C7)nc5c3F)N3[C@@H](C)CCOC[C@H]3N4C3CC3)c12	2.95
C[C@H]1CCOC[C@H]2COc3c(Cl)c(-c4ccc(F)c5sc(N)c(C#N)c45)c(F)c4nc(OC[C@@]56CCCN5C[C@H](F)C6)nc(c34)N21 (atropisomer, axis not shown) [Compound 158A]	0.69
C#Cc1c(F)ccc2cc(N)cc(-c3nc4c5c(nc(OC[C@@]67CCCN6C[C@H](F)C7)nc5c3F)N3CCCOCC3N4C3CC3)c12 (some centres unmarked)	2.55
C#Cc1c(F)ccc2cc(N)cc(-c3nc4c5c(nc(OC[C@@]67CCCN6C[C@H](F)C7)nc5c3F)N3CCOCCC3N4C)c12 (some centres unmarked)	2.87

Incoming: What value of log10(IC50) has been recorded for this entry: [2H]C([2H])([2H])N1c2nc(-c3cc(N)cc4ccc(F)c(C#C)c34)c(F)c3nc(OC[C@@]45CCCN4C[C@H](F)C5)nc(c23)N2CCCOC[C@H]21
Outgoing: 1.74

Incoming: What value of log10(IC50) has been recorded for this entry: C#Cc1c(F)ccc2cc(N)cc(-c3nc4c5c(nc(OC[C@@]67CCCN6C[C@H](F)C7)nc5c3F)N3CCCC[C@H](F)[C@H]3N4C)c12 [Compound 40A]
Outgoing: 1.56

Incoming: What value of log10(IC50) has been recorded for this entry: C#Cc1c(F)ccc2cc(N)cc(-c3nc4c5c(nc(OC[C@@]67CCCN6C[C@H](F)C7)nc5c3F)N3[C@@H](C)CCOC[C@H]3N4C)c12
Outgoing: 1.48

Incoming: What value of log10(IC50) has been recorded for this entry: C#Cc1c(F)ccc2cc(N)cc(-c3nc4c5c(nc(OC[C@@]67CCCN6C[C@H](F)C7)nc5c3F)N3C(C(F)F)CCOCC3N4C)c12 (some centres unmarked)
Outgoing: 2.56

* * *

tested-on: GDP-KRAS G12D (Homo sapiens, UniProt P01116, G12D)
Sequence (P01116 1-169 isoform P01116-2 G12D): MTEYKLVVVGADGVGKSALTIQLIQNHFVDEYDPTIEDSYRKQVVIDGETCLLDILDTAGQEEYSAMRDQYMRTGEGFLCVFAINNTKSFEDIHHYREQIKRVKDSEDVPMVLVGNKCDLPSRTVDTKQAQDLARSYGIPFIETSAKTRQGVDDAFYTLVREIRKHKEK
measurement-protocol: biochemical
measured-metric: IC50 (nM)
# number only, unit nM dropped from output

Solved entries (count: 5):
[2H]C1([2H])OCCCN2c3nc(OC[C@@]45CCCN4C[C@H](F)C5)nc4c(F)c(-c5cc(N)cc6ccc(F)c(C#C)c56)nc(c34)N(C)C21 (stereo partly drawn) [Compound 76]	2.84
C#Cc1c(F)ccc2cc(N)cc(-c3nc4c5c(nc(OC[C@@]67CCCN6C[C@H](F)C7)nc5c3F)N3CC(C)COC[C@H]3CO4)c12 (stereo partly drawn) [Compound 16]	29.7
C#Cc1c(F)ccc2cc(N)cc(-c3nc4c5c(nc(OC[C@@]67CCCN6C[C@H](F)C7)nc5c3F)N3[C@H](C)CCOC[C@H]3N4C)c12 [Compound 41]	5.51
[2H]C([2H])([2H])N1c2nc(-c3cc(N)cc4ccc(F)c(C#C)c34)c(F)c3nc(OC[C@@]45CCCN4C[C@H](F)C5)nc(c23)N2CCCOC[C@H]21 [Compound 48]	0.759
N#Cc1c(N)sc2c(F)ccc(-c3cc4c5c(nc(OC[C@@]67CCCN6C[C@H](F)C7)nc5c3F)N3CCCCC[C@H]3CO4)c12 [Compound 139]	19.6

// below: IC50 requested for another molecule
Incoming: What value of IC50 has been recorded for this entry: C#Cc1c(F)ccc2cc(N)cc(-c3nc4c5c(nc(OC[C@@]67CCCN6C[C@H](F)C7)nc5c3F)N3CCCC(F)(F)C3CO4)c12 (stereo partly drawn) [Compound 28]
Outgoing: 13
